Value source: paper PMC9465256

- experimental-target: human MAGL (Homo sapiens)
- Construct: expressed in transfected cells; host or cells: HEK293T (transient transfection; membrane fraction)
- Sequence (Q99685 1-303): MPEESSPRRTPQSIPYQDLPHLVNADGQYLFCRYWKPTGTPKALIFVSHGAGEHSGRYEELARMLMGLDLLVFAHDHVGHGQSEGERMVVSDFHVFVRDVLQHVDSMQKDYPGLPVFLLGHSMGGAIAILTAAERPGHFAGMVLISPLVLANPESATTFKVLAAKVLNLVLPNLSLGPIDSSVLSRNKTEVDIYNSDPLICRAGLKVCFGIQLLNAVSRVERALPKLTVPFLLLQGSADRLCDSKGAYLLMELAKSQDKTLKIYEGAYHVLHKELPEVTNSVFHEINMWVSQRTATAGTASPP
- method: MAGL activity assay (AA-HNA fluorogenic substrate)
- Type: biochemical
- condition-set: 100 µM, AA-HNA substrate assay, Supplementary Table 1; read-out: MAGL Inhibition (%)
Reported activity at 100 µM by item:
The response must be a number in % with no trailing unit.

>>> result_number("C=C1C(=O)[C@]23[C@H](O)[C@H]1CC[C@H]2[C@@]12CO[C@]3(O)[C@@H](O)[C@@H]1C(C)(C)CC[C@@H]2O")
59.6

Just so you know, measured activity at 100 µM for OC[C@H]1O[C@@H](Oc2ccc(O)cc2)[C@H](O)[C@@H](O)[C@@H]1O came out at 84.2

###

- experimental-target: human ABHD6 (Homo sapiens)
- Construct: expressed in transfected cells; host or cells: HEK293T (transient transfection; membrane fraction)
- Sequence (Q9BV23 whole entry): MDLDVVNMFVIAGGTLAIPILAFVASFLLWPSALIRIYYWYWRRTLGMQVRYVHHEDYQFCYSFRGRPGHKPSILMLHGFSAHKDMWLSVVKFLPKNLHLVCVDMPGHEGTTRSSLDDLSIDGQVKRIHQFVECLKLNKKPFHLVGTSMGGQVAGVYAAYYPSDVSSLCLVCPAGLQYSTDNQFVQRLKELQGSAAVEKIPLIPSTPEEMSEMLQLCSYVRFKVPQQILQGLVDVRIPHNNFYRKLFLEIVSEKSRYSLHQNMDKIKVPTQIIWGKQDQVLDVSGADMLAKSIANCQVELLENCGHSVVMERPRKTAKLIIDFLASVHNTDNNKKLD
- method: ABHD6 activity assay (AA-HNA fluorogenic substrate)
- Assay type: biochemical
- condition-set: 100 µM, AA-HNA substrate assay, Supplementary Table 2; read-out: ABHD6 Inhibition (%)
endpoint-label: activity at 100 µM (%)
The response must be a number in % with no trailing unit.

Sample answers from the record:
>>> result_number("O=c1c2ccccc2nc2n1CCc1c-2[nH]c2ccccc12 [compound 71, Rutaecarpine]")
111
>>> result_number("OC[C@H]1O[C@@H](Oc2ccc(O)cc2)[C@H](O)[C@@H](O)[C@@H]1O [compound 10, Arbutin]")
83.2
>>> result_number("C=C1C(=O)[C@]23[C@H](O)[C@H]1CC[C@H]2[C@@]12CO[C@]3(O)[C@@H](O)[C@@H]1C(C)(C)CC[C@@H]2O [compound 60, Oridonin]")
102

Field activity at 100 µM (human ABHD6 (Homo sapiens)), entry Cc1cc(=O)oc2cc(O)ccc12 [compound 5, 4-Methylumbelliferone] : 92.5

Field activity at 100 µM (human ABHD6 (Homo sapiens)), entry O=C(/C=C/C=C/c1ccc2c(c1)OCO2)N1CCCCC1 [compound 68, Piperine] : 112

###

- experimental-target: human ABHD12 (Homo sapiens)
- Construct: expressed in transfected cells; host or cells: HEK293T (transient transfection; membrane fraction)
- method: ABHD12 activity by competitive ABPP with FP-TAMRA
- Type: biochemical
- condition-set: 100 µM compound; competitive ABPP with probe FP-TAMRA (250 nM); read-out: ABHD12 Inhibition (%)
# label = Fulfilled if activity at 100 µM < 80% else Not fulfilled

>>> label("O=c1c(O)c(-c2ccc(O)c(O)c2)oc2cc(O)cc(O)c12")
"Fulfilled"

## Task Is activity at 100 µM strictly under 80% for the entry O=c1cc(-c2ccccc2)oc2cc(O)cc(O)c12 ?
## Result Not fulfilled

## Task Is activity at 100 µM strictly under 80% for the entry C=CCc1ccc(O)c(-c2ccc(O)c(CC=C)c2)c1 ?
## Result Not fulfilled

## Task Is activity at 100 µM strictly under 80% for the entry O=c1cc(-c2ccc(O)cc2)oc2cc(O)cc(O)c12 ?
## Result Fulfilled

## Task Is activity at 100 µM strictly under 80% for the entry O=c1c(-c2ccc(O)cc2)coc2c([C@@H]3O[C@H](CO)[C@@H](O)[C@H](O)[C@H]3O)c(O)ccc12 ?
## Result Not fulfilled

## Task Is activity at 100 µM strictly under 80% for the entry C[C@H]1[C@H](C)CC[C@]2(C(=O)O)CC[C@]3(C)C(=CC[C@@H]4[C@@]5(C)C[C@@H](O)[C@H](O)[C@@](C)(CO)[C@@H]5CC[C@]43C)[C@H]12 ?
## Result Fulfilled

## Task Is activity at 100 µM strictly under 80% for the entry COc1c(O)cc2c(c1O)[C@@H]1O[C@H](CO)[C@@H](O)[C@H](O)[C@H]1OC2=O ?
## Result Not fulfilled

## Task Is activity at 100 µM strictly under 80% for the entry COc1ccc(-c2cc(=O)c3c(OC)c(OC)c(OC)c(OC)c3o2)cc1OC ?
## Result Fulfilled

## Task Is activity at 100 µM strictly under 80% for the entry O=c1c(O)c(-c2ccc(O)cc2)oc2cc(O)cc(O)c12 ?
## Result Fulfilled

## Task Is activity at 100 µM strictly under 80% for the entry CC1(C)[C@@H](O[C@H]2O[C@H](C(=O)O)[C@@H](O)[C@H](O)[C@H]2O[C@@H]2O[C@H](C(=O)O)[C@@H](O)[C@H](O)[C@H]2O)CC[C@]2(C)[C@H]3C(=O)C=C4[C@@H]5C[C@@](C)(C(=O)O)CC[C@]5(C)CC[C@@]4(C)[C@]3(C)CC[C@@H]12 ?
## Result Fulfilled

## Task Is activity at 100 µM strictly under 80% for the entry Cc1cc2c(C(C)C)c(O)c(O)c(C=O)c2c(O)c1-c1c(C)cc2c(C(C)C)c(O)c(O)c(C=O)c2c1O [compound 34, Gossypol Acetate] ?
## Result Fulfilled

## Task Is activity at 100 µM strictly under 80% for the entry C=C1CC[C@@H]2[C@](C)(CO)[C@H](O)CC[C@@]2(C)[C@@H]1C/C=C1/C(=O)OC[C@H]1O [compound 8, Andrographolide] ?
## Result Fulfilled

###

- experimental-target: human ABHD12 (Homo sapiens, UniProt Q8N2K0)
- Construct: expressed in transfected cells; host or cells: HEK293T (transient transfection; membrane fraction)
- Sequence (Q8N2K0 1-398): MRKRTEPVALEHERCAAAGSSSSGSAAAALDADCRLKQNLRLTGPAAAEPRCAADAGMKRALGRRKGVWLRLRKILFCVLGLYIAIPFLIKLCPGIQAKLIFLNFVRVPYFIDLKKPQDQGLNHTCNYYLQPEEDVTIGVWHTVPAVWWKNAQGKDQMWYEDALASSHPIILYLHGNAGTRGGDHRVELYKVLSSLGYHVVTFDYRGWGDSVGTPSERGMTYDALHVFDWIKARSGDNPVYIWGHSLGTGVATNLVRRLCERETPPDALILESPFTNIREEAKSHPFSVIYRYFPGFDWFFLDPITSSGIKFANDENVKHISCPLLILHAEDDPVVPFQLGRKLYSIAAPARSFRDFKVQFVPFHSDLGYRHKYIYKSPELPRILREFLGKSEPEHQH
- method: ABHD12 activity by competitive ABPP with FP-TAMRA
- Assay type: biochemical
- condition-set: 100 µM compound; competitive ABPP with probe FP-TAMRA (250 nM); read-out: ABHD12 Inhibition (%)
endpoint-label: activity at 100 µM (%)
The response must be a number in % with no trailing unit.

Just so you know, measured activity at 100 µM for c1coc(CNc2ncnc3[nH]cnc23)c1 came out at 78.2

Just so you know, measured activity at 100 µM for C[C@H]1[C@@H](O)O[C@@H]2O[C@@]3(C)CC[C@H]4[C@H](C)CC[C@@H]1[C@@]24OO3 [compound 26, Dihydroartemisinin] came out at 81.1

Just so you know, measured activity at 100 µM for C[C@@H]1O[C@@H](O[C@H]2[C@H](Oc3cc(O)c4c(c3)O[C@H](c3ccc(O)cc3)CC4=O)O[C@H](CO)[C@@H](O)[C@@H]2O)[C@H](O)[C@H](O)[C@H]1O came out at 81.4

Just so you know, measured activity at 100 µM for C[C@H]1COC2=C1C(=O)C(=O)c1c2ccc2c1CCCC2(C)C came out at 81.6

Just so you know, measured activity at 100 µM for O=C(/C=C/c1ccc(O)c(O)c1)O[C@@H]1C[C@](O)(C(=O)O)C[C@@H](O)[C@H]1O came out at 78.1

###

Reported activity at 100 µM by item:
- experimental-target: human MAGL (Homo sapiens)
- Construct: expressed in transfected cells; host or cells: HEK293T (transient transfection; membrane fraction)
- Sequence (Q99685 1-303): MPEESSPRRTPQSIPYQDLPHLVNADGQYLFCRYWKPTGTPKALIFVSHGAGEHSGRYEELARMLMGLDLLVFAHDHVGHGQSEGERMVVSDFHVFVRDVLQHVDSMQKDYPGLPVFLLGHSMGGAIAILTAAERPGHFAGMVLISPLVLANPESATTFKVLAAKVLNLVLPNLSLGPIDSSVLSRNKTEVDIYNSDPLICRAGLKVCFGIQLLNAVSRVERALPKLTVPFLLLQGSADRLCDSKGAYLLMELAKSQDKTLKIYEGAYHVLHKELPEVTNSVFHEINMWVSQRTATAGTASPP
- method: MAGL activity assay (AA-HNA fluorogenic substrate)
- Format: biochemical
- condition-set: 100 µM, AA-HNA substrate assay, Supplementary Table 1; read-out: MAGL Inhibition (%)
The response must be a number in % with no trailing unit.

>>> result_number("COc1ccc(-c2coc3cc(O)ccc3c2=O)cc1 [compound 31, Formononetin]")
103
>>> result_number("COc1c(O)cc2c(c1O)[C@@H]1O[C@H](CO)[C@@H](O)[C@H](O)[C@H]1OC2=O [compound 16, Bergenin]")
124
>>> result_number("O=C(O)c1cc(=O)[nH]c(=O)[nH]1 [compound 61, Orotic acid]")
101
>>> result_number("CC1(C)O[C@H]2CC(=O)OC[C@]23[C@H]2CC[C@@]4(C)[C@H](c5ccoc5)OC(=O)[C@H]5O[C@]54[C@]2(C)C(=O)C[C@@H]13 [compound 46, Limonin]")
90.6
>>> result_number("N#C[C@H](O[C@@H]1O[C@H](CO[C@@H]2O[C@H](CO)[C@@H](O)[C@H](O)[C@H]2O)[C@@H](O)[C@H](O)[C@H]1O)c1ccccc1 [compound 7, Amygdalin]")
75.9

Just so you know, measured activity at 100 µM for O=c1c(O)c(-c2ccc(O)cc2)oc2cc(O)cc(O)c12 [compound 43, Kaempferol] came out at 32.2
